- assayedSystem: Glucocorticoid receptor (Homo sapiens)
- assayOverview: GR-GFP Redistribution (AID 450); also: potency is read from the fitted curve at half-maximal effect
- conditionLabel: U2OS GR-GFP nuclear translocation, laser cytometry, 2 h
The source made the active and inactive calls.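 The calls were made as follows: active = compounds whose dose series gives a full or clear partial fitted curve of increased nuclear translocation; inconclusive = weak partial curve or effect only at the top dose; inactive = no dose-dependent translocation response.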
Below is a list of entries, each paired with its recorded Potency value.

Look over these answered cases.
CN(C)c1ccc(-c2nc(NCc3cccnc3)c3ccccc3n2)cc1    > 46 µM (inactive)
O=c1c(-c2ccc(Cl)cc2)nc2cnc(N3CCNCC3)nc2n1CCc1ccccc1    > 9.22 µM (inactive)
Cc1cnc(CNc2ncncc2-c2ccc3c(c2)OCO3)cn1    > 46 µM (inactive)
Cc1cnc(CNc2nc(-c3ccoc3)nc3ccccc23)cn1    > 46 µM (inactive)
CN1CCN(c2ncc3nc(-c4cccc(C#N)c4)c(=O)n(CCC#N)c3n2)CC1    > 9.22 µM (inactive)
c1ccc(CNc2ncncc2-c2cccnc2)cc1    > 46 µM (inactive)

# value of Potency, Glucocorticoid receptor (Homo sapiens), item COc1ccccc1-c1nc(NCCNC(C)=O)c2ccccc2n1 = > 46 µM (inactive)

# value of Potency, Glucocorticoid receptor (Homo sapiens), item O=c1c(-c2ccc(F)cc2)nc2cnc(N3CCOCC3)nc2n1C1CC1 = > 9.22 µM (inactive)

# value of Potency, Glucocorticoid receptor (Homo sapiens), item O=c1c(-c2ccc(F)cc2)nc2cncnc2n1Cc1ccccc1 = > 9.22 µM (inactive)

# value of Potency, Glucocorticoid receptor (Homo sapiens), item CNc1nc(-c2ccccc2C(F)(F)F)nc2ccccc12 = > 46 µM (inactive)

----------
- assayOverview: NFAT Signaling Pathway (AID 444);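 also: carbachol stimulus at about its EC50 of 1 µM final; % is scaled to controls: 0 for no effect and ±100 for the full control effect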
- conditionLabel: Jurkat NFAT-bla M1, carbachol, beta-lactamase ratio, 5 h; at 7.69 µM (top of the series) unless noted
Records with an inconclusive call do not appear.
Below is a list of entries, each paired with its recorded activity change, negative = inhibition value.
Response body: numeric value in %, unit text excluded.

Cc1nc2cnc(Oc3ccccc3)nc2n(-c2ccccc2)c1=O    9.01
Cc1ccccc1-c1nc(-n2ccnc2)c2ccccc2n1    -10.1
COCCn1c(=O)c(-c2cccs2)nc2cnc(N3CCOCC3)nc21    2.93
N#Cc1cccc(-c2nccc(NCc3ccccc3)n2)c1    13.6
CN1CCN(c2ncc3nc(CCc4ccccc4)c(=O)n(C)c3n2)CC1    1.74

Next up:
// sample Cc1noc(C)c1-c1nc(N2CCOCC2)c2ccccc2n1 , its activity change, negative = inhibition was 16.1

----------
- assayedSystem: Dual specificity protein kinase CLK4 (Homo sapiens) (UniProt Q9HAZ1)
- Sequence (Q9HAZ1 whole entry, looked up): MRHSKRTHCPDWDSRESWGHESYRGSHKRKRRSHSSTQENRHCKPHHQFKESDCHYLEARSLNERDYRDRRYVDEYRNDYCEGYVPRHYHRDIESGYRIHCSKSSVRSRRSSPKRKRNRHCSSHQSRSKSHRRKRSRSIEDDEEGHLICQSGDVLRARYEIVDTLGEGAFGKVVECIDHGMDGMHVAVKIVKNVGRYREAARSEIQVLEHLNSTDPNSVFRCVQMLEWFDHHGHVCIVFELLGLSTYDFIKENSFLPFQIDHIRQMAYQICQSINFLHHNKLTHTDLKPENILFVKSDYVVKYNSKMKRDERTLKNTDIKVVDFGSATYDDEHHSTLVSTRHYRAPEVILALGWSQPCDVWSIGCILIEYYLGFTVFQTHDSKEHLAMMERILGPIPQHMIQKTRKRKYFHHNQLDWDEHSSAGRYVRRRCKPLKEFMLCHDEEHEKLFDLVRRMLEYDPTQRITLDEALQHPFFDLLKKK
- assayOverview: qHTS Assay for Inhibitors of CDC-like Kinase 4 (ADP-Glo Assay) (AID 1771); also: nearly all actives have a fitted effect of over 70% in size; also: potency is read from the fitted curve at half-maximal effect
- conditionLabel: recombinant CLK4, ADP-Glo luminescence; series mostly up to 80 µM
Results filed as inconclusive are left out. The source made the active and inactive calls. Calls come from the whole dose curve; as a rule, active = well fitted inhibition curve with a large enough effect; inconclusive = small, poorly fitted or top-dose-only effect; inactive = flat fitted curve, though single readings scatter.
endpointLabel: Potency

Look over these answered cases.
CCNc1ncc2nc(-c3cn(C)c4ccccc34)c(=O)n(CCC#N)c2n1    inactive
c1ccc(CNc2ncncc2-c2cccnc2)cc1    inactive
Cc1nc2cncnc2n(Cc2ccc(F)cc2)c1=O    inactive
CNc1ccnc(-c2ccccc2C)n1    inactive
Cc1cnc(CNc2cc(-c3ccc4c(c3)OCO4)ncn2)cn1    3.55 µM (active)
COc1ccc(CNc2ncnc3ccc(-c4c(C)noc4C)cc23)c(OC)c1    15.8 µM (active)
Cc1cnc(CNc2ncncc2-c2ccc(N(C)C)cc2)cn1    15.8 µM (active)
Cc1cccc(CNc2cc(-c3ccccc3Cl)ncn2)c1    28.2 µM (active)

// sample CS(=O)(=O)Nc1cccc(-c2cc(Nc3ccccc3)ncn2)c1 , its Potency was 35.5 µM (active)

// sample COc1ccc(CNc2ccnc(-c3ccccc3CN(C)C)n2)c(OC)c1 , its Potency was inactive

// sample CN(Cc1ccco1)c1ccnc(-c2ccccc2C(F)(F)F)n1 , its Potency was inactive

// sample COc1ccc2[nH]cc(CCNc3nc(-c4ccc(N(C)C)cc4)nc4ccccc34)c2c1 , its Potency was 28.2 µM (active)

// sample COc1cccc(Nc2ncc3nc(-c4ccccc4)c(=O)n(C)c3n2)c1 , its Potency was inactive

----------
- System: P94_40
- assayOverview: qHTS profiling for inhibitors of Plasmodium falciparum proliferation (AID 504749); also: nearly all actives have a fitted effect of over 60% in size
- conditionLabel: P. falciparum in erythrocytes, SYBR Green DNA, 72 h; series mostly up to 12.8 µM
Results filed as inconclusive are left out. Active and inactive are the calls of the source. The call rests on the fitted dose curve; in most records, active means well fitted inhibition curve with a large enough effect; inconclusive means small, poorly fitted or top-dose-only effect; inactive means flat fitted curve, though single readings scatter.
Returns: one label drawn from Y for active, N for inactive

Record excerpt, results attached:
C[N+](C)(C)CC(O)CC(=O)O (stereo unspecified)    N
O=C(c1ccccc1)c1ccc2n1CC[C@H]2C(=O)O    N
C[C@@H]1COc2c(N3CCN(C)CC3)c(F)cc3c(=O)c(C(=O)O)cn1c23    N
NC(N)=NC[C@@H]1COC2(CCCCC2)O1    N
CCN(CC)CCC[C@H](C)Nc1c2ccc(Cl)cc2nc2ccc(OC)cc12    Y

Asked: Assay result, entry CN1[C@@H]2CC[C@H]1CC(OC(=O)[C@@H](O)c1ccccc1)C2 (stereo partly specified) — outcome?
Given back: N

Asked: Assay result, entry CCn1cc(C(=O)O)c(=O)c2cc(F)c(N3CCN[C@@H](C)C3)c(F)c21 — outcome?
Given back: N

Asked: Assay result, entry CN[C@@H]1[C@H](O[C@@H]2O[C@H](CO)[C@@H](N)[C@H](O)[C@@H]2O)O[C@H]2C[C@@H](N)[C@@H](O[C@H]3[C@@H](O)[C@H](O)[C@H](N)C[C@@H]3N)O[C@H]2[C@H]1O — outcome?
Given back: N

Asked: Assay result, entry CN[C@@H](CC(C)C)C(=O)N[C@@H]1C(=O)N[C@H](CC(N)=O)C(=O)N[C@@H]2C(=O)N[C@H]3C(=O)N[C@H](C(=O)N[C@H](C(=O)O)c4cc(O)cc(O)c4-c4cc3ccc4O)[C@H](O)c3ccc(c(Cl)c3)Oc3cc2cc(c3O[C@H]2O[C@@H](CO)[C@@H](O)[C@@H](O)[C@@H]2O[C@@H]2C[C@](C)(N)[C@H](O)[C@H](C)O2)Oc2ccc(cc2Cl)[C@@H]1O — outcome?
Given back: N

Asked: Assay result, entry C[N+]1(C)CCC[C@@H](OC(=O)C(O)(c2ccccc2)c2ccccc2)C1 — outcome?
Given back: N

Asked: Assay result, entry CN(C)[C@H]1C(=O)C(C(=O)NCN2CCCC2)=C(O)[C@]2(O)C(=O)C3=C(O)c4c(O)cccc4[C@@](C)(O)[C@H]3C[C@@H]12 — outcome?
Given back: N

Asked: Assay result, entry CC1(C)Oc2ccc(C#N)cc2[C@H](N2CCCC2=O)[C@H]1O — outcome?
Given back: N

Asked: Assay result, entry CC1(C)O[C@@H]2C[C@H]3[C@H]4C[C@H](F)C5=CC(=O)C=C[C@@]5(C)[C@@H]4[C@H](O)C[C@]3(C)[C@]2(C(=O)CO)O1 — outcome?
Given back: N

Asked: Assay result, entry COCCc1ccc(OC[C@H](O)CNC(C)C)cc1 — outcome?
Given back: N

Asked: Assay result, entry Cc1cc(/C=C\c2ccc3cc(N(C)C)ccc3[n+]2C)c(C)n1-c1ccccc1 — outcome?
Given back: Y

Asked: Assay result, entry CC(C)(C)NC[C@H](O)c1cc(O)cc(O)c1 — outcome?
Given back: N

Asked: Assay result, entry CO/N=C(\C(=O)N[C@@H]1C(=O)N2C(C(=O)O)=C(COC(C)=O)CS[C@@H]12)c1csc(N)n1 — outcome?
Given back: N

Asked: Assay result, entry N[C@@H](CO)C(=O)NNCc1ccc(O)c(O)c1O — outcome?
Given back: N

Asked: Assay result, entry CC(C)NC[C@H](O)c1cc(O)cc(O)c1 — outcome?
Given back: N

Asked: Assay result, entry CC(C)N1CCN(c2ccc(OC[C@@H]3CO[C@@](Cn4cncn4)(c4ccc(Cl)cc4Cl)O3)cc2)CC1 — outcome?
Given back: N

Asked: Assay result, entry NC(=O)c1cc[n+](CC2=C(C(=O)O)N3C(=O)[C@@H](NC(=O)[C@H](c4ccccc4)S(=O)(=O)[O-])[C@@H]3SC2)cc1 — outcome?
Given back: Y

Asked: Assay result, entry C[C@H](NCCc1ccc(O)cc1)[C@@H](O)c1ccc(O)cc1 — outcome?
Given back: N

----------
- System: DIV17
- assayOverview: qHTS profiling for inhibitors of Plasmodium falciparum proliferation (AID 504749); also: nearly all actives have a fitted effect of over 60% in size
- conditionLabel: P. falciparum in erythrocytes, SYBR Green DNA, 72 h; series mostly up to 12.8 µM
Inconclusive results are not listed. Calls of active or inactive are those of the source. Calls follow the shape of the dose curve; as a rule, active = well fitted inhibition curve with a large enough effect; inconclusive = small, poorly fitted or top-dose-only effect; inactive = flat fitted curve, though single readings scatter.
Returns: one label drawn from true (1) = active, false (0) = inactive

Record excerpt, results attached:
CCC[C@H]1C(=O)N2C(N(C)C)=Nc3ccc(C)cc3N2C1=O    false (0)
C[C@@H](C(=O)O)c1ccc(C(=O)c2cccs2)cc1    false (0)
CC(=O)N(CC(O)CN(C(C)=O)c1c(I)c(C(=O)NC[C@@H](O)CO)c(I)c(C(=O)NC[C@@H](O)CO)c1I)c1c(I)c(C(=O)NC[C@@H](O)CO)c(I)c(C(=O)NC[C@@H](O)CO)c1I    false (0)

Asked: Assay result, entry CC(=O)O[C@@H](C)C[N+](C)(C)C — outcome?
Given back: false (0)

Asked: Assay result, entry COc1cc(/C=C/C(=O)/C=C(O)/C=C/c2ccc(O)c(OC)c2)ccc1O — outcome?
Given back: true (1)

Asked: Assay result, entry C[n+]1ccccc1/C=N\O — outcome?
Given back: false (0)

Asked: Assay result, entry CCn1cc(C(=O)O)c(=O)c2cc(F)c(N3CCN[C@@H](C)C3)c(F)c21 — outcome?
Given back: false (0)

Asked: Assay result, entry C/C=C\C(=O)N(CC)c1ccccc1C — outcome?
Given back: false (0)

Asked: Assay result, entry NS(=O)(=O)c1cc([C@@]2(O)NC(=O)c3ccccc32)ccc1Cl — outcome?
Given back: false (0)

Asked: Assay result, entry O=C(Cc1cccs1)NC1C(=O)N2C(C(=O)[O-])=C(C[n+]3ccccc3)CSC12 (stereo not given) — outcome?
Given back: false (0)
